# SYSTEM TESTED: Adenosine receptor A3 (Bos taurus)
# MEASUREMENT DESCRIPTION: Displacement of [125I]AB-MECA from Adenosine A3 receptor in bovine cortical membranes in the presence of 20 nM DPCPX.
pKi: −log10 of the molar value.
MEASURED METRIC: pKi

{"SMI": "CC(C)c1cn2c(NC(=O)C3CCCC3)nc(-c3ccccc3)nc2n1", "pKi": 7.76}
{"SMI": "Cc1cn2c(NC3CCCC3)nc(-c3ccccc3)nc2n1", "pKi": 5.65}
{"SMI": "CC(=O)Nc1nc(-c2ccccc2)nc2nc(-c3ccccc3)cn12", "pKi": 7.40}

(P) O=C(Nc1nc(-c2ccccc2)nc2nc(-c3ccccc3)cn12)C1CCCC1
(Q) CC(=O)Nc1nc(-c2ccccc2)nc2nc(C)cn12
Query string: Consider P and Q . Which of these has its pKi at a higher number? Label of pick, please.
Result string: Q
